Cited source for all entries: the RNAGym collection of RNA variant scans (doi:10.7554/elife.80360)

B1: CPEB3 Ribozyme (parent)
chain: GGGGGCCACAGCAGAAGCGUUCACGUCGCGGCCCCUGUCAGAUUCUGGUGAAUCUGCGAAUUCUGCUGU

Variants of: B1
procedureDetails: self-cleavage, relative activity (ratio to wild type); higher = more cleavage; co-transcriptional
readout: self-cleavage
# answer = number (no unit)

As a guide, the following entries are already answered.
variantString	readout	resultValue
G11U C32U	self-cleavage	0.854
G2C U20A	self-cleavage	0.0496
G17A C35A	self-cleavage	0.136

[ask] Identify self-cleavage associated with the variant A23G C27A
[reply] 0.303

[ask] Identify self-cleavage associated with the variant C32G G47A
[reply] 0.673

[ask] Identify self-cleavage associated with the variant G4A A10C
[reply] 0.968
